Source: patent US20260092100A1

Quick list: IC50, final serum dilution per entry.
Target: hMPV F protein on hMPV/A virus (human metapneumovirus, subtype A, UniProt Q6WB98 19-539)
Sequence (Q6WB98 19-539): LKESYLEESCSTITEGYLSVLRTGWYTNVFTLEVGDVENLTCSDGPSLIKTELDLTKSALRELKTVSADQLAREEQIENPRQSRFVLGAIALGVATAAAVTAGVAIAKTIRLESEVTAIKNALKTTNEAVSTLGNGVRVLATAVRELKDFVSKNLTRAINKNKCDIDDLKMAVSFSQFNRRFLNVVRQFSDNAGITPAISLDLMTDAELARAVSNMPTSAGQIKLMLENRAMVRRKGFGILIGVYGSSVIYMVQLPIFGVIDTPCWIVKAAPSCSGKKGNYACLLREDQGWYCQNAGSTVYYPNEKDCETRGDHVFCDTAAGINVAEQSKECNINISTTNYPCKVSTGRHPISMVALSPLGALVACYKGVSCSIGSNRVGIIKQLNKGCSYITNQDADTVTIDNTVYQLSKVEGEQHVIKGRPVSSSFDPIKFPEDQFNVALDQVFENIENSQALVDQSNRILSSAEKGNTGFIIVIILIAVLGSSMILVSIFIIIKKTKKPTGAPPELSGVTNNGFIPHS
Test: cell-based or functional assay
State the value with its unit after it.

- binder: "42C2 (mouse) (antibody, V domains shown, Mouse IgG1 / kappa; also called 42C2 mIgG; 42C2 mAB) VH: QVTLKESGPGILQPSQTLSLTCSFSGFSLSTFGMGVVWTRQPSGKGLEWLAHIWWDDDNYYNPALKSRLTISKDTSKNQVFLKIANADTADTATYYCARIVKVLEQYFDVWGTGTTVTVSS VL: DIMMTQSHKFMSTSVGDRVIFTCKASQDVGTAVAWYQQKSGQSPKLLIYWASTRHTGVPDRFTGSGSGTDFTLTISNVQSEDLADYFCQQYTSYPLTFGAGTKLELK"
  property-measured: "IC50, final serum dilution"
  experimental-value: "0.0977 µg/mL"

Here is the next item to consider.
Lab note: 17D10 hIgG1 (antibody, V domains shown, Recombinant form with human IgG1 Fc; also called Human 17D10 mAB; 171D10 hIgG1) VH: QVQLQQPGAELVKPGASVKMSCKASGYTFTSYWITWVKQRPGQGLEWIGDIYPGSGSITYNEKFKTKATLTVDTSSSTAYMQLNSLTSEDSAVYYCAGLLRLTFDVWGTGTTVTVSS VL: DIQLTQTTSSLSASLGDRVTISCRASQDISNYLNWYQQKPDGTVKLLISYTSGLHSGVPSRFSGSGSGTDYSLTISNLEQEDIATYFCQQGNTLPWTFGGGTKLEIKR gave IC50, final serum dilution of 0.0345 µg/mL
